method.notes: Inhibition of human p300/CBP in human PC-3 cells assessed as decrease in H3K27 acetylation incubated for 24 hrs followed by compound washout and measured after 2 hr by Fluorescence based plate reader assay
Type: cell-based
reported.endpoint: EC50

INSERT INTO results (compound, result) VALUES
  ('CNC(=O)Nc1ccc2c(c1)CC[C@@]21OC(=O)N(CC(=O)N(Cc2ccc(F)cc2)[C@@H](C)C(F)(F)F)C1=O [A-485]', '> 10000 nM'),
  ('C=CC(=O)Nc1cccc(NC(=O)Nc2ccc3c(c2)CC[C@@]32OC(=O)N(CC(=O)N(Cc3ccc(F)cc3)[C@@H](C)C(F)(F)F)C2=O)c1', '17 nM');

* * *

System: LNCaP-Clone-FGC
method.notes: Antiproliferative activity against AR-positive human LNCaP-Clone-FGC cells assessed as inhibition of cell proliferation measured after 5 days by luminiscent plate reader method
Format: functional, cell-based
measurement.setup: 120 h
pEC50: −log10 of the molar value.
Parameter pEC50: see the listing below.
reported.endpoint: pEC50

INSERT INTO assay_data (structure, result_number) VALUES
  ('C=CC(=O)Nc1cccc(NC(=O)Nc2ccc3c(c2)CC[C@@]32OC(=O)N(CC(=O)N(Cc3ccc(F)cc3)[C@@H](C)C(F)(F)F)C2=O)c1', 7.06),
  ('C=CC(=O)NCC(C)(C)CNC(=O)Nc1ccc2c(c1)CC[C@@]21OC(=O)N(CC(=O)N(Cc2ccc(F)cc2)[C@@H](C)C(F)(F)F)C1=O', 6.75),
  ('CNC(=O)Nc1ccc2c(c1)CC[C@@]21OC(=O)N(CC(=O)N(Cc2ccc(F)cc2)[C@@H](C)C(F)(F)F)C1=O', 6.46);

* * *

System: DU-145
method.notes: Antiproliferative activity against human DU-145 cells assessed as inhibition of cell proliferation measured after 5 days by luminiscent plate reader method
Assay type: functional, cell-based
measurement.setup: DU-145, 120 h
pEC50: −log10 of the molar value.
reported.endpoint: pEC50

INSERT INTO measurements (structure, result_number) VALUES
  ('C=CC(=O)Nc1cccc(NC(=O)Nc2ccc3c(c2)CC[C@@]32OC(=O)N(CC(=O)N(Cc3ccc(F)cc3)[C@@H](C)C(F)(F)F)C2=O)c1', 5.86);
